# Tested on: MDA-MB-435 melanoma
# Assay details: NCI-60 one-dose screen, 48 h (100 = growth as untreated, 0 = no growth, -100 = all killed)
# Study conditions: 10 µM unless noted
Compounds without any hit were thinned out: in the full panel of roughly 83,000, 20% have a hit.
Field: growth. Provide a value for each of the molecules that follow.
Numbers only, in %.

INSERT INTO measurements (molecule, reported_property, recorded_value) VALUES
  ('CCCCNCCCCCNc1cc(OC)cc2cccnc12', 'growth', 102),
  ('CS(=O)(=O)c1ccc(-c2cnn3ccc(-c4cccc(S(=O)(=O)C5CC5)c4)nc23)cc1', 'growth', 59.1),
  ('N#CC1=C(N)Oc2c(sc3c(Br)cccc23)C1c1ccc(Cl)cc1 (stereo not given)', 'growth', -23.2),
  ('O=C1C(=O)N(Cc2ccc(-c3ccccc3)cc2)c2ccc(OC(F)(F)F)cc21', 'growth', 38),
  ('NC(=O)c1cc(I)ccc1NC(=O)/C=C/c1ccccc1', 'growth', -30.5),
  ('O=S(=O)(Nc1ccc(F)cc1F)c1ccc(-c2cnc(C3CC3)o2)cc1', 'growth', -33.8);

Give growth for all molecules that follow.
1. C#CCOC(=O)/C=C/c1cn(-c2ccccc2)nc1-c1ccc(OC)cc1
2. CCCCCCCCCCC(CN(CC)CC)C(O)c1ccccc1 (stereo not given)

[107, -25.1]

###

# Test system: SF-268 CNS
# Assay details: NCI-60 one-dose screen, 48 h (100 = growth as untreated, 0 = no growth, -100 = all killed)
# Study conditions: 10 µM unless noted
The panel holds about 83,000 compounds, 20% with a hit somewhere; the sample as a whole holds those more often.
Reported property: growth (%)
Numbers only, in %.

INSERT INTO assay_data (compound, recorded_value) VALUES
  ('Cc1cc(C)c2c(c1)N(C)c1ncnc(-n3cnc4cc(C)ccc43)c1CC2C (centres undefined)', 40.4),
  ('COCCOc1cc2ncnc(N3CCN(c4ncc(S(=O)(=O)N5CCCCC5)cn4)CC3)c2cc1OCCOC', 93.3),
  ('CCOC(=O)C1=C(C)NC(=O)NC1c1c(Cl)n(CCCl)c2ccccc12 (centres undefined)', 88);

Could you now consider this next compound?
If you can, please state the reported growth value of Fc1cnccc1C1CC(c2ccc(N3CCNCC3)cc2)=NN1 (centres undefined) . 107

###

# Tested on: SNB-19 CNS
# Assay details: NCI-60 one-dose screen, 48 h (100 = growth as untreated, 0 = no growth, -100 = all killed)
# Study conditions: 10 µM unless noted
The panel holds about 83,000 compounds, 20% with a hit somewhere; the sample as a whole holds those more often.
Reported property: growth (%)
Numbers only, in %.

# count of solved cases: 6
INSERT INTO results (compound, target, recorded_value) VALUES
  ('N#Cc1nc(-c2ccccc2)oc1S(=O)(=O)N1CCN(c2ccccc2)CC1', 'SNB-19 CNS', 99.6),
  ('CCN1C(=O)N(CC)C2C1NN=c1s/c(=C\c3ccccc3F)c(=O)n12 (stereo unspecified)', 'SNB-19 CNS', 31),
  ('Nc1[nH]n2cc(-c3ccccc3)nc2c1N=Nc1ccc(S(N)(=O)=O)cc1', 'SNB-19 CNS', 60.4),
  ('CCOC(=O)n1ccn(C)c1=S', 'SNB-19 CNS', 110),
  ('CCCNc1nc2ccccc2c2c1S(=O)(=O)c1ccc(Cl)cc1C2=O', 'SNB-19 CNS', 24.4),
  ('Nc1c(C(=O)Nc2ccccc2F)sc2nc3c(cc12)CCCC3', 'SNB-19 CNS', 33.7);

Give growth for all compounds that follow.
1. COC(=O)c1nc(-c2ccc(C)cc2)oc1S(=O)(=O)c1cccc(OC)c1
2. CCNCCNc1cc(C2CCCCC2)c(C#N)c2nc3ccccc3n12
3. N#Cc1c(-c2ccccc2)[nH]c2ncc(-c3ccccc3)n2c1=O
4. CC(=O)/C(=C\c1c(-c2ccccc2)[nH]c2ccccc12)S(C)(=O)=O
5. CN(C)c1ccc(C(=O)OCCCCCCl)cc1
6. CS(=O)(=O)c1ccc(-c2cnn3ccc(-c4cccc(S(=O)(=O)C5CC5)c4)nc23)cc1
7. Cc1cc(=O)oc2cc(OCc3nn4c(Nc5nc6ccccc6s5)c(-c5ccccc5)nc4s3)ccc12

101
42.9
105
23.2
95.6
67.3
74.7

Give growth for all compounds that follow.
1. N#Cc1c(-c2ccccc2)cc(-c2ccccc2)n(CCCC(=O)Nc2ccccc2N)c1=O
2. Nc1nc2ccccc2c2c(=O)c3cccc(Cl)c3sc12
3. COC1=CC(c2ccc[nH]2)=N/C1=C\c1[nH]c(C)c(CC(=O)OCc2ccccc2)c1CCC(=O)OCc1ccccc1
4. COc1ccc(-c2nc3cc(C(=O)NCc4ccccc4)ccc3n2C2CCCCC2)cc1

[62.2, 92.6, 25.5, 98.2]

###

# Test system: LOX IMVI melanoma
# Assay details: NCI-60 one-dose screen, 48 h (100 = growth as untreated, 0 = no growth, -100 = all killed)
# Study conditions: 10 µM unless noted
The panel holds about 83,000 compounds, 20% with a hit somewhere; the sample as a whole holds those more often.
Reported property: growth (%)
Give bare numbers, in %.

INSERT INTO assay_data (molecule, reported_property, recorded_value) VALUES
  ('CC(C)Cn1cnc2c(=O)[nH]c(N)nc21', 'growth', 97.8);

Give growth for all molecules that follow.
1. COc1cc2c(c(OC)c1OC)CCC(c1cccc(NC(=O)c3ccc(Br)cc3)c1)O2 (configuration not stated)
2. Cc1nc2sc(C(=O)Nc3ccc(Br)cc3)c(N)c2cc1C(O)c1ccccc1 (configuration not stated)
3. O=C(/C=C(/C=C/c1ccc2[nH]ccc2c1)OB(F)F)/C=C/c1ccc2[nH]ccc2c1
4. Nc1nc2ccccc2c2c1S(=O)(=O)c1ccc(Cl)cc1C2=O

90.4
61.3
-64.3
8.26

###

# Test system: IGROV1 ovarian
# Assay details: NCI-60 one-dose screen, 48 h (100 = growth as untreated, 0 = no growth, -100 = all killed)
# Study conditions: 10 µM unless noted
Compounds without any hit were thinned out: in the full panel of roughly 83,000, 20% have a hit.
Response key: 1 (yes) means growth >= 90%; 0 (no) means growth < 90%.

INSERT INTO assay_data (compound, group_label) VALUES
  ('COc1ccc(CN2c3ccccc3Sc3ccccc32)cc1F', '0 (no)');

hey, is growth for this one >= 90%? CNC(=O)c1ccccc1Oc1nc(Nc2cc(OC)c(OC)c(OC)c2)ncc1Br 0 (no)

hey, is growth for this one >= 90%? O=C(CSc1nc2ccc([N+](=O)[O-])cc2[nH]1)Nc1ccc([N+](=O)[O-])cc1 0 (no)

hey, is growth for this one >= 90%? COc1ccc(OC)c(/C=N/Nc2ncnc3c2c(C)nn3C)c1 1 (yes)

hey, is growth for this one >= 90%? COc1cc(C2CC(c3ccc(Nc4nc(Nc5ccc(Cl)cc5)nc(Nc5ccc(Cl)cc5)n4)cc3)=NN2C(C)=O)cc(OC)c1OC (stereo not drawn) 0 (no)

###

Field: growth. Provide a value for each of the compounds that follow.
# Test system: HOP-62 NSCLC
# Assay details: NCI-60 one-dose screen, 48 h (100 = growth as untreated, 0 = no growth, -100 = all killed)
# Study conditions: 10 µM unless noted
The panel holds about 83,000 compounds, 20% with a hit somewhere; the sample as a whole holds those more often.
Give bare numbers, in %.

INSERT INTO measurements (smiles_str, recorded_value) VALUES
  ('COc1ccc(-c2nn(-c3cccc(Cl)c3)cc2-c2cc(-c3ccc(Br)cc3)nc(N)n2)cc1', 88),
  ('O=C(Nc1cccc2ccccc12)NC1CC1', 89.8),
  ('Cc1cn(-c2cc(NC(=O)c3cccc(C#Cc4cccc5[nH]nc(N)c45)c3)cc(C(F)(F)F)c2)cn1', 55.5),
  ('Nc1ncnc2c1c(-c1cccc(Cl)c1)nn2CC(=O)N1CCOCC1', 109);

Could you now consider this next compound?
If you can, please state the reported growth value of CC(=O)/C(=C\c1c(-c2ccccc2)[nH]c2ccccc12)S(C)(=O)=O . 50.5

###

# Tested on: SNB-75 CNS
# Assay details: NCI-60 one-dose screen, 48 h (100 = growth as untreated, 0 = no growth, -100 = all killed)
# Study conditions: 10 µM unless noted
About 83,000 compounds went through this panel and 20% of them were active in at least one assay; those are over-represented in the sample as a whole.
Rule: measured growth below 40% gets Yes; anything equal to or greater than 40% gets No.

INSERT INTO assay_data (smiles_str, group_label) VALUES
  ('CN(/C(N)=N/N=C/c1c2ccccc2cc2ccccc12)C1CCCCC1', 'No'),
  ('CC(C)COc1nc2c(c(=O)n(C)c(=O)n2C)n1C', 'No'),
  ('Fc1cccc(Oc2ccc(Nc3ncnc4ccc(OCCCN5CCOCC5)cc34)cc2Cl)c1', 'No'),
  ('CN1CCc2nc3sc(C(N)=O)c(N)c3c(-c3cccs3)c2C1', 'Yes'),
  ('c1csc(-c2ccc(CNc3c4ccccc4nc4ccccc34)cc2)c1', 'Yes');

--- query ---
Just wondering, is growth of O=C1Nc2ccc(C(=O)O)cc2/C1=N/c1nnc(Sc2ccccc2)s1 below 40%? No
